Tested on: erastin (10 μM)-treated HT-1080 cells
Experiment: Inhibition of death in erastin (10 μM)-treated HT-1080 cells, viability by Alamar Blue
Type: cell-based, human
Details: Homo sapiens, HT-1080, inhibition of death in erastin (10 μM)-treated HT-1080 cells; Alamar Blue; from dose response curves
Experimental readout: EC50

Example cases with answers are listed next.
INSERT INTO results (compound, meas_value) VALUES
  ('CCOC(=O)c1ccc(NC23CC4CC(CC(C4)C2)C3)c(NCc2ccncc2)c1', '9 nM'),
  ('CCOC(=O)c1ccc(NC23CC4CC(CC(C4)C2)C3)c(N)c1', '88 nM'),
  ('CCOC(=O)c1cnc(NC2CCCCC2)c(NCc2ccncc2)c1', '194 nM'),
  ('CCOC(=O)c1cnc(NC2CCCCC2)c(N)c1', '544 nM'),
  ('CCOC(=O)c1ccc(NC2C3CC4CC(C3)CC2C4)c(NCc2ccccc2)c1 (centres unmarked)', '22 nM'),
  ('CCOC(=O)c1ccc(NC2C3CC4CC(C3)CC2C4)c(NCc2cncnc2)c1 (centres unmarked)', '21 nM'),
  ('CCCCCCCCN(CCCCCCCC)c1ccc(C(=O)OCC)cc1N [SRS12-12, ethyl 3-amino-4-(dioctylamino)benzoate]', '> 10000 nM'),
  ('CCOC(=O)c1ccc(NC2C3CC4CC(C3)CC2C4)c(N)c1 (centres unmarked)', '171 nM'),
  ('CCOC(=O)c1ccc(NC2CCCCCCC2)c(N(C)C)c1', '3460 nM'),
  ('CCOC(=O)c1ccc(NC23CC4CC(CC(C4)C2)C3)c(NCc2cncnc2)c1', '54 nM');

Challenge: What does the data say about its EC50? Entry: CCOC(=O)c1ccc(NC2CCCCCC2)c(N)c1
Response given: 130 nM

Challenge: Next compound up: CCOC(=O)c1cc(N)c(NC2CCCCC2)cc1F
Response given: 104 nM

Challenge: Next compound up: CCOC(=O)c1ccc(NC2CCCCC2)c(NCc2ccc([N+](=O)[O-])cc2)c1
Response given: 35 nM

Challenge: Next compound up: CCOC(=O)c1ccc(NC2CCCCC2)c(NCc2cc(F)cc(F)c2)c1
Response given: 95 nM

Challenge: Next compound up: CCOC(=O)c1ccc(NC2CCC2)c(N)c1
Response given: 265 nM

Challenge: Next compound up: CCOC(=O)c1ccc(NC2CC2)c(N)c1
Response given: 880 nM

Challenge: Next compound up: CCOC(=O)c1ccc(NC2CCCCC2)c(NCc2ccc3ccccc3c2)c1
Response given: 56 nM

Challenge: Next compound up: CCOC(=O)c1cnc(NC2CCCCC2)c(NCc2ccccc2)c1
Response given: 48 nM

Challenge: Next compound up: CCOC(=O)c1ccc(NN2CCN(C)CC2)c(N)c1
Response given: 3600 nM

Challenge: Next compound up: CCOC(=O)c1cc(N)c(NC2CCCCC2)cc1Cl
Response given: 54 nM

----------
# EC50 listing for each entry below
System: erastin (10 μM)-treated HT-1080 cells
Experiment: Inhibition of death in erastin (10 μM)-treated HT-1080 cells, viability by Alamar Blue
Format: cell-based, human
Conditions: Homo sapiens, HT-1080, inhibition of death in erastin (10 μM)-treated HT-1080 cells; Alamar Blue; from dose response curves
Write the answer as a number in nM, unit excluded.

INSERT INTO assay_data (molecule, experimental_readout, meas_value) VALUES
  ('CCOC(=O)c1ccc(NC2CCC(C(C)(C)C)CC2)c(NCc2cncnc2)c1 (centres unmarked)', 'EC50', 15);

Challenge: What does the data say about its EC50? Entry: CC(C)(C)OC(=O)CCOCCOC(=O)c1ccc(NC2CCCCC2)c(N)c1
Response given: 160

Challenge: Next molecule up: CCOC(=O)c1ccc(CNc2cc(C(=O)OCC)ccc2NC2CCCCC2)cc1
Response given: 52

Challenge: Next molecule up: CCOC(=O)c1ccc(NC2CCOCC2)c(N)c1
Response given: 1450

Challenge: Next molecule up: CCOC(=O)c1ccc(NC2CCCCC2)c(NCc2ccc(F)c(C#N)c2)c1
Response given: 158

Challenge: Next molecule up: CCOC(=O)c1ccc(NC2CCCCC2)c(NCc2ccccn2)c1
Response given: 32

Challenge: Next molecule up: CCOC(=O)c1ccc(NC2CCNCC2)c(N)c1
Response given: 350

----------
System: erastin (10 μM)-treated HT-1080 cells
Experiment: Inhibition of death in erastin (10 μM)-treated HT-1080 cells, viability by Alamar Blue
Type: cell-based, human
Settings: Homo sapiens, HT-1080, inhibition of death in erastin (10 μM)-treated HT-1080 cells; Alamar Blue; from dose response curves
# EC50 listing for each entry below
Write the answer as a number in nM, unit excluded.

Example cases with answers are listed next.
INSERT INTO assay_data (molecule, subject_of_test, experimental_readout, quantity_unit, meas_value) VALUES
  ('CCOC(=O)c1ccc(NC2CCCCC2)c(NCc2cncnc2)c1 [SRS13-35]', 'erastin (10 μM)-treated HT-1080 cells', 'EC50', 'nM', 27),
  ('CCOC(=O)c1ccc(NC2CCCCC2)c(NCc2ccc(C(=O)OC)cc2)c1 [SRS12-69]', 'erastin (10 μM)-treated HT-1080 cells', 'EC50', 'nM', 58),
  ('CCOC(=O)c1cnc(NC2CCCCC2)c(NCc2ccncn2)c1 [SRS14-93]', 'erastin (10 μM)-treated HT-1080 cells', 'EC50', 'nM', 1550),
  ('CCOC(=O)c1cc(N)c(NC2CCCCC2)cc1C [SRS14-58]', 'erastin (10 μM)-treated HT-1080 cells', 'EC50', 'nM', 28),
  ('CCOC(=O)c1ccc(NC2CCC(C(C)(C)C)CC2)c(N)c1 (stereo not shown) [SRS8-92]', 'erastin (10 μM)-treated HT-1080 cells', 'EC50', 'nM', 42);

Now examine the next entry.
Challenge: Field: EC50 (erastin (10 μM)-treated HT-1080 cells). Entry: CCOC(=O)c1ccc(NC2CCCC2)c(N)c1 [SRS8-73]
Response given: 120

----------
System: erastin (10 μM)-treated HT-1080 cells
Test: Inhibition of death in erastin (10 μM)-treated HT-1080 cells, viability by Alamar Blue
Format: cell-based, human
Settings: Homo sapiens, HT-1080, inhibition of death in erastin (10 μM)-treated HT-1080 cells; Alamar Blue; from dose response curves
pEC50: −log10 of the molar value.
# pEC50 listing for each entry below

Example cases with answers are listed next.
INSERT INTO measurements (compound, subject_of_test, meas_value) VALUES
  ('CCOC(=O)c1ccc(NC2CCCCC2)c([N+](=O)[O-])c1', 'erastin (10 μM)-treated HT-1080 cells', '< 5.00'),
  ('CCOC(=O)c1ccc(NC2C3CC4CC(C3)CC2C4)c(NCc2ccncc2)c1 (stereo not shown)', 'erastin (10 μM)-treated HT-1080 cells', '> 8.30'),
  ('CCOC(=O)c1ccc(NC2CCCCCCC2)c(C(=O)OC(C)(C)C)c1', 'erastin (10 μM)-treated HT-1080 cells', '< 5.00');

Challenge: What does the data say about its pEC50? Entry: CCOC(=O)c1ccc(Cl)c(N)c1 [SRS8-62, ethyl 3-amino-4-chlorobenzoate]
Response given: < 5.00

Reference source: patent US9580398B2
